Measured values drawn from a melting point compilation (Tetko et al.; mined from patent text by program, amines drawn as free bases though some values may be those of a salt) for this set.

Let's look at some compounds and their measured melting point.

Known melting point results, listed for orientation:
[[record]]
compound = "CNC(=O)N(O)C(C)c1ccc(C)c(Br)c1 (configuration not stated)"
reported_value = "107 to 108 °C"

[[record]]
compound = "COc1ccc([C@]2(C)CNC(=O)O2)cc1OC1CCC1"
reported_value = "132 °C"

[[record]]
compound = "CCCCCCCCOC(=O)n1c(-c2cscn2)nc2ccccc21"
reported_value = "66 to 67.5 °C"

[[record]]
compound = "COCCCOc1cc(CC(CC2C(OC(=O)OC(C)(C)C)CC(C(C)(C)O)C(=O)N2C(=O)OC(C)(C)C)C(C)C)ccc1OC (configuration not stated)"
reported_value = "118 to 119 °C"


Problem: Quote melting point reported for O=C(Nc1ccc(-n2nc(C(F)(F)F)cc2C2CC2)cc1)c1c(F)cccc1F please.
Result: 188 to 191 °C

Problem: Input CCc1cc(C(=O)c2ccccc2Cl)c(-n2c(C)nnc2CNC(=O)c2cc3ccccc3n2CCC(=O)OC)s1 , output reported melting point.
Result: 67 to 68 °C

Problem: Please indicate melting point recorded for CCOc1ccc(CC(=O)OCc2ccc(C#N)cc2)cc1
Result: 59 °C

====

ASSAY READOUT: melting point

Below: 2 compounds and their reported melting point.
[[record]]
compound = "N#CC(C(=O)Nc1cccc(F)c1)C(=O)c1nn(-c2ccccc2)c2c1Cc1ccccc1-2 (stereo not given)"
reported_value = "278 to 284 °C"

[[record]]
compound = "CCS(=O)(=O)c1ccc(-c2cc(C(F)(F)F)ccc2OCC(=O)O)cc1C(F)(F)F"
reported_value = "174 to 175 °C"


Problem: Quote melting point reported for Cn1cc(Cl)c2cc(C=O)ccc21 please.
Result: 109 °C

Problem: Please indicate melting point recorded for CN1C(=O)C(=C(Nc2ccc(-c3cn(C)cn3)cc2)c2ccc(CN)cc2)c2ccccc21
Result: > 300 °C

Problem: Please report melting point for the following compound: CCOC(Cc1ccc2oc(CN3c4ccccc4Sc4ccccc43)cc2c1)C(=O)O (stereo not given)
Result: 120 to 121 °C

Problem: Identify melting point associated with the compound Cn1cnc(C(=O)N2CCC(NC(=O)Nc3ccc(C(F)(F)F)cc3)CC2)c1
Result: 222 to 226 °C

Problem: Tell me measured melting point for COc1cc(-c2nc3ccc(OCCCCl)cc3n2Cc2ccccc2)cc(OC)c1OC please.
Result: 118 °C

Problem: For the compound O=c1[nH]c(CO)nc2nc(O)cnc12 , give its reported melting point.
Result: > 300 °C

Problem: Give melting point for COc1ncc(C(=O)Cc2c(Cl)cncc2Cl)cc1OC1CCCC1
Result: 118 to 119 °C

Problem: Supply melting point value. Item: CC1=C(C)[C@]23OC[C@](C)(CCC2=C(C)C1=O)O3
Result: 99 to 100 °C

Problem: Using known records, supply melting point for CC(=O)S[C@H]1CC[C@H](/C=C/C=C/c2ccc(C(F)(F)F)cc2)CC1
Result: 113 to 115 °C

====

Listed here: items and their measured melting point.

Consider the reported melting point for these compounds:
[[record]]
compound = "Fc1ccc(-c2csc(Nc3ccccc3C(F)(F)F)n2)cc1"
assay_readout = "melting point"
reported_value = "184 °C"

[[record]]
compound = "CNC(=O)C(Cc1ccc(OC)cc1)NC(=O)C(C)(CC(C)C)c1ccccc1S (centres undefined)"
assay_readout = "melting point"
reported_value = "165 to 168 °C"

[[record]]
compound = "CN1CCN(c2cc(Cl)cc3c2c(=O)n(CCCc2ccccc2)c(=O)n3Cc2ccccc2)CC1"
assay_readout = "melting point"
reported_value = "55 to 63 °C"

[[record]]
compound = "COc1ccc(CCNc2nccc(-c3cccc(NC(=O)CCN(C)C)c3)n2)cc1OC"
assay_readout = "melting point"
reported_value = "107 to 108 °C"

[[record]]
compound = "CCCc1nc2c(N)nc3ccccc3c2n1CCCC(C)N(OC)C(=O)NC1CCCC1 (centres undefined)"
assay_readout = "melting point"
reported_value = "182 to 184 °C"

[[record]]
compound = "Nc1c2c(nn1-c1ccc(Cl)cc1)CCCC2"
assay_readout = "melting point"
reported_value = "140 to 142 °C"

[[record]]
compound = "COc1ccc(S(=O)(=O)[C@H](CCCCc2ccccc2)[C@H](C(=O)O)C(C)C)cc1OC (relative stereo)"
assay_readout = "melting point"
reported_value = "173 to 174 °C"

[[record]]
compound = "CS(=O)(=O)c1ccc(-c2cc(Br)sc2-c2ccc(F)cc2)cc1"
assay_readout = "melting point"
reported_value = "122 to 124 °C"


Problem: Let me know recorded melting point for Sc1nc(-c2ccccc2)c(-c2cccnc2)[nH]1 , thanks.
Result: 317 to 323 °C

Problem: Output measured melting point for this item: COc1ccccc1C(Cn1ccnc1)S(=O)c1ccc(C(=O)O)cc1 (centres undefined)
Result: 157 to 159 °C

Problem: Supply reported melting point belonging to this compound: COCCOc1ccc(CCCOC(=O)NS(=O)(=O)NCCC(C)C)c(Oc2ncc(C(F)(F)F)cc2Cl)c1
Result: 123 to 124 °C

Problem: Give the value of melting point reported for the following: CN1C(=O)C(Cl)=C(C#N)C1=O
Result: 141 to 143 °C

Problem: Fill in melting point for record CNC(=O)c1ccc(N2CCNCC2)c(F)c1
Result: 174 to 193 °C

====

A collection of compounds and their measured melting point

Consider the worked cases shown below.
[[record]]
compound = "CCc1c[nH]c2c3c(ccc12)OCC3"
reported_value = "91 to 92.5 °C"

[[record]]
compound = "CC1(C)C(=O)Nc2cc(C(=O)Nc3ccccc3)ccc21"
reported_value = "205 to 206 °C"

[[record]]
compound = "O=C(O)c1ccc(OCCNC(=O)C2Cc3ccccc3N2S(=O)(=O)c2ccc(-c3ccc(F)cc3Cl)cc2)cc1F (stereo not given)"
reported_value = "98 to 102 °C"

[[record]]
compound = "CC(=O)Nc1ccc(-c2c(Cl)c(CCl)nc3sc4c(c23)CCN(Cc2ccccc2)C4)cc1"
reported_value = "203 to 204 °C"


Pending compound:
Problem: Hello, please tell me recorded melting point for this one: CCCc1c(OCCCOc2ccc3c(c2CCC)OC(C)(CCC(=O)O)CC3=O)ccc(C(C)=O)c1O (stereo not given)
Result: 80 to 83 °C

====

ASSAY READOUT: melting point

[[record]]
compound = "O=C(O)c1cn(-n2cnnc2)c2nc(Cl)c(F)cc2c1=O"
assay_readout = "melting point"
reported_value = "230 °C"

[[record]]
compound = "FC(F)(F)c1cc(-c2nnn[nH]2)cc(C(F)(F)F)c1"
assay_readout = "melting point"
reported_value = "179 °C"

[[record]]
compound = "COc1ccc2c(c1)CCC1C2CCC2(C)C(NCc3cccs3)CCC12 (stereo unspecified)"
assay_readout = "melting point"
reported_value = "85.5 to 85.9 °C"


Problem: Assign melting point to the following record: O=S(=O)(NCCCCOc1ccc(-n2ccnc2)cc1)c1ccc2ccccc2c1
Result: 157 to 158 °C

Problem: Output measured melting point for this item: CCCN1C(=O)C(C)(C)N=C(c2ccccc2F)c2cc([N+](=O)[O-])cc(Cl)c21
Result: 178 to 179 °C

Problem: Give me measured melting point, please, for this compound: CC(CCCNC(=O)CCCCCBr)C(F)(F)F (stereo unspecified)
Result: 96 to 98 °C

Problem: Provide measured melting point value, entry: CC(C)(CCc1ccc(OCCO)cc1)NCC(O)c1ccccc1 (stereo unspecified)
Result: 118 to 120 °C

Problem: Name the recorded melting point of the compound listed here: CC(Sc1ccccc1)C1C=CCC1C(N)=O (stereo unspecified)
Result: 109 °C

Problem: Provide measured melting point value, entry: O=C(c1ccc(Cl)cc1)c1ccc2nc(Cl)cc(CCc3cccc(Cl)c3)c2c1
Result: 180 °C

====

ASSAY READOUT: melting point

[[record]]
compound = "Nc1ccc(/C=C/C(=O)CC(=O)/C=C/c2ccc(O)cc2)cc1"
assay_readout = "melting point"
reported_value = "212 to 217 °C"

[[record]]
compound = "Cc1nn(-c2cc(O)c(Cl)cc2Cl)c(C)c1Cl"
assay_readout = "melting point"
reported_value = "172 to 174 °C"

[[record]]
compound = "CCOC1=CC2=CCC3C4CCC(=O)C4(C)CCC3C2(C)CC1 (stereo unspecified)"
assay_readout = "melting point"
reported_value = "146 to 149 °C"


Problem: Tell me its melting point given CC(=O)Nc1ccccc1Sc1ccc([N+](=O)[O-])cc1[N+](=O)[O-] as the entry.
Result: 183 to 184 °C

Problem: State its melting point for this compound: Nc1c(Cl)cc(C(O)CNCCCCCCOCCSCCc2ccccn2)cc1Cl (stereo unspecified)
Result: 59.5 to 62 °C

Problem: Answer with the recorded melting point of CCOC(=O)C(O)(CC(=O)c1ccc(C)c(F)c1)C(=O)OCC only.
Result: 68.7 to 69 °C

Problem: Provide measured melting point value, entry: COC(=O)c1cccc(NC(=O)c2ccc(OC)c([N+](=O)[O-])c2)c1
Result: 233 to 235 °C
